Each recorded value in this set is attributed to patent US7074789B2.

Parameter IC50: see the listing below.
- measurement target: EGFR (Homo sapiens, UniProt P00533)
- Construct: Kinases are expressed as either kinase domains or full length constructs; made in house
- Sequence (P00533 25-1210, species assumed): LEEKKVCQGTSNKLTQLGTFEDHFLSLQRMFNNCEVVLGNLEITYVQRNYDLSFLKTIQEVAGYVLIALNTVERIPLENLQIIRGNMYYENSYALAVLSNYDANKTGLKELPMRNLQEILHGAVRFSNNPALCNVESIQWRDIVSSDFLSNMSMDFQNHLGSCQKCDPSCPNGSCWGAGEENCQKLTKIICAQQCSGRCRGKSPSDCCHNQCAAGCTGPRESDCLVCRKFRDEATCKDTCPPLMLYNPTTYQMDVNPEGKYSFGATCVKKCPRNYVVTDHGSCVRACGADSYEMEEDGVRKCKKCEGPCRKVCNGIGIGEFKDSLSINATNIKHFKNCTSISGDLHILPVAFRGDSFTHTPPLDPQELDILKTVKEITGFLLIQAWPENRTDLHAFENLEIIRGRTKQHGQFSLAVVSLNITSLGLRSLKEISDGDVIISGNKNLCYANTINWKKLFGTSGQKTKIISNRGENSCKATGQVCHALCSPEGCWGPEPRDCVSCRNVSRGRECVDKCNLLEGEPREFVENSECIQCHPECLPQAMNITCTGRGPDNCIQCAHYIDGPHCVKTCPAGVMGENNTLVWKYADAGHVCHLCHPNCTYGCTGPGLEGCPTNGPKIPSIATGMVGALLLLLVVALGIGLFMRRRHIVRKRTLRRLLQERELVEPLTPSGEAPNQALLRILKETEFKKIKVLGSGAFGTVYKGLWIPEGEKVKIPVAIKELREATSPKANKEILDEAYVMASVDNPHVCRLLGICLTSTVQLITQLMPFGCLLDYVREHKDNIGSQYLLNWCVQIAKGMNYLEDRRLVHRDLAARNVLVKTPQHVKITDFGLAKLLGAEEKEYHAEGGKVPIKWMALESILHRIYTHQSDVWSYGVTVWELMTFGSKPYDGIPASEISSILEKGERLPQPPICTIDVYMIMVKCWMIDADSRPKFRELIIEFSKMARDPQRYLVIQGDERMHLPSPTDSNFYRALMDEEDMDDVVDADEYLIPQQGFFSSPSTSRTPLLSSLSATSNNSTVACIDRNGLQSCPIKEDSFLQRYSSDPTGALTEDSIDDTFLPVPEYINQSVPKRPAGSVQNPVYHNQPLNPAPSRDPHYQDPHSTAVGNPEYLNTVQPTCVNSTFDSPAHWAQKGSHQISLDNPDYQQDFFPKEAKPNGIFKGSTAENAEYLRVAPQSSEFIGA
- assay method text: Kinase inhibition assay (33P transfer), EGFR
- Type: biochemical
- measurement setup: Table 2, kinase inhibition class; read-out: EGFR-1

> print(dat)
                                   compound   observed.result
1  CC(=O)NS(=O)(=O)c1ccc(Nc2ncnc(-n3c(=O)[nH]c4ccccc43)n2)cc1 [Compound 452]         > 10.6 µM
2  CC(C)(C)OC(=O)NCc1cccc(Nc2ncnc(Nc3cc(-c4ccccc4)n[nH]3)n2)c1 [Compound 986]   5.23 to 7.63 µM
3  COc1cc(Nc2ncnc(Nc3ccc(S(=O)(=O)NC(C)=O)cc3)n2)cc(OC)c1OC [Compound 255]         > 9.48 µM
4  O=c1[nH]c2ccccc2n1-c1ncnc(Nc2ccc(OC(F)(F)F)cc2)n1 [Compound 462]         > 11.6 µM
5  COc1cc(Nc2ncnc(N(CC(=O)O)c3ccc4c(c3)OCO4)n2)cc(OC)c1OC [Compound 319]  0.878 to 5.27 µM

What value of IC50 has been reported for the following compound? COC(=O)Cc1cccc(Nc2ncnc(Nc3ccc(C)c(O)c3)n2)c1 [Compound 542]
1.09 to 6.57 µM

What value of IC50 has been reported for the following compound? Cc1ccc2c(c1)CCCN2c1ncnc(Nc2cccc(Cl)c2C)n1 [Compound 778]
6.56 to 9.57 µM

What value of IC50 has been reported for the following compound? COc1ccc(CNc2ncccc2-c2ncnc(Nc3cc(OC)c(OC)c(OC)c3)n2)nc1 [Compound 1085]
> 9.46 µM

###

- measurement target: Src (Homo sapiens, UniProt P12931)
- Sequence (P12931 whole entry, species assumed): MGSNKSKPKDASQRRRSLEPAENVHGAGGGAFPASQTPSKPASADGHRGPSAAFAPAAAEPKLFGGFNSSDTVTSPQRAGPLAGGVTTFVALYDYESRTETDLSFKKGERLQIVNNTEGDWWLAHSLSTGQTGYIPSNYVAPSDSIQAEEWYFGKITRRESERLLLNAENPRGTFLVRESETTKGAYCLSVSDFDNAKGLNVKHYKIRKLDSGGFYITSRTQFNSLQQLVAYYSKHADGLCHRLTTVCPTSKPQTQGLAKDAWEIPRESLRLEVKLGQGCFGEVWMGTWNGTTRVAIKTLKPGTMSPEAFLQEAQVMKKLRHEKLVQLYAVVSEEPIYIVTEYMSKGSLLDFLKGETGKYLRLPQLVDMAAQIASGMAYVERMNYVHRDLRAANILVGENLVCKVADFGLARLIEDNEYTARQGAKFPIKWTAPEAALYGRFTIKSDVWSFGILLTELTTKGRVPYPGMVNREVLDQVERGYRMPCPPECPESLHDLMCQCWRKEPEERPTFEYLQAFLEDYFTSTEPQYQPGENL
pIC50: −log10 of the molar value.
Parameter pIC50: see the listing below.

Answered cases to consult:
> print(dat)
                           structure.smiles  observed.result
1  COc1cc(Nc2ncnc(-n3c(Nc4ccccc4)nc4ccccc43)n2)cc(OC)c1OC           < 5.02
2  COc1cc(Nc2ncnc(-n3c(Nc4ccc(C(C)C)cc4)nc4ccccc43)n2)cc(OC)c1OC           < 5.06
3  COc1cc(Nc2ncnc(-n3c(NCc4ccncc4)nc4ccccc43)n2)cc(OC)c1OC     5.31 to 6.08
4  CCOc1ccc(Nc2ncnc(Nc3ccc(C)c(O)c3)n2)cc1OCC           > 5.98

What value of pIC50 has been reported for the following molecule? COc1ccc(Nc2ncnc(Nc3cc(OC)c(OC)c(OC)c3)n2)cc1OC
< 4.96

What value of pIC50 has been reported for the following molecule? COc1cc(Nc2ncnc(-n3c(NC(C)C)nc4ccccc43)n2)cc(OC)c1OC
5.26 to 6.04

What value of pIC50 has been reported for the following molecule? COc1ccc2c(ccn2-c2ncnc(Nc3cc(OC)c(OC)c(OC)c3)n2)c1
< 4.96

What value of pIC50 has been reported for the following molecule? COc1cc(Nc2ncnc(Nc3ccc(Cl)c4ccccc34)n2)cc(OC)c1OC
5.10 to 5.26

###

- measurement target: Kdr (Homo sapiens, UniProt P35968)
- Construct: Kinases are expressed as either kinase domains or full length constructs; made in house
- Sequence (P35968 20-1356, species assumed): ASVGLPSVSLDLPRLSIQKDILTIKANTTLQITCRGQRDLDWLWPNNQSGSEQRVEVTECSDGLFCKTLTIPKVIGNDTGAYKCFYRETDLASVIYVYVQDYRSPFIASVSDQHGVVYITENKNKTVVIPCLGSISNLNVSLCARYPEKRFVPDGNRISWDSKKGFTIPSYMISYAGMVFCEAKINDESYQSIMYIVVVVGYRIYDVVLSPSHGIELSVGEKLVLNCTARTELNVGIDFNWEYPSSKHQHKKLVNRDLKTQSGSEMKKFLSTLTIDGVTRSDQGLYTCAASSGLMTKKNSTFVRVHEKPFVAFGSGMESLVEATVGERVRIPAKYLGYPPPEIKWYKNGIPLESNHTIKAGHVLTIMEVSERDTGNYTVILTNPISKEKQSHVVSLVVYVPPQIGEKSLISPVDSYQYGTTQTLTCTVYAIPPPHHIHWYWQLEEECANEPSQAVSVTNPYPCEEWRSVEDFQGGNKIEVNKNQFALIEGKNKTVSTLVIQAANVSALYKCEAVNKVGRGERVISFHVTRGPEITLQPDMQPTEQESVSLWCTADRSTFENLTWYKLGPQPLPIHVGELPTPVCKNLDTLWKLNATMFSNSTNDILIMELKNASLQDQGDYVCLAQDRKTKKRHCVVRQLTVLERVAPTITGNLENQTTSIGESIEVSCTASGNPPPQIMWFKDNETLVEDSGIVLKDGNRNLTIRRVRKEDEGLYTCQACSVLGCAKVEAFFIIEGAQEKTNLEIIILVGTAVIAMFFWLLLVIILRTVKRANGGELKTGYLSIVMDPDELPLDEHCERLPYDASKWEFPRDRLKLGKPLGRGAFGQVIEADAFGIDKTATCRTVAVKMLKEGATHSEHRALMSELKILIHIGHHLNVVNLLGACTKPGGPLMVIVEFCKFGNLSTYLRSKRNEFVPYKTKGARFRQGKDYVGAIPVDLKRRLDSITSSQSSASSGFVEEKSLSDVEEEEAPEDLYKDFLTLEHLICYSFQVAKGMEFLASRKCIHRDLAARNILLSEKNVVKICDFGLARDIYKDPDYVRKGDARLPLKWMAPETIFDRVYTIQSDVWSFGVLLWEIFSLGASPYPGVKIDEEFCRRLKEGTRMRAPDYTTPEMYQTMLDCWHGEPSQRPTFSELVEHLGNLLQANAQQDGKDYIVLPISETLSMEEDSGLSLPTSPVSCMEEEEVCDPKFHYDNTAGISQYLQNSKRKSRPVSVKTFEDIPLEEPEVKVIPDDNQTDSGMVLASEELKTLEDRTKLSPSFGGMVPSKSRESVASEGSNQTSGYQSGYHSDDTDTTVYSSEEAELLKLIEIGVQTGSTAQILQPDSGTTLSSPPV
- assay method text: Kinase inhibition assay (33P transfer), Kdr
- Format: biochemical
- measurement setup: Table 3; read-out: KDR-1
pIC50: −log10 of the molar value.
recorded metric: pIC50

Answered cases to consult:
> print(dat)
                           structure.smiles  observed.result
1  COc1cc(Nc2ncnc(-n3ccc4ccccc43)n2)cc(OC)c1OC           > 5.97
2         COc1ccc(Nc2ncnc(-c3cccs3)n2)cc1OC           < 4.84
3            Nc1ncnc(Nc2nc(-c3ccccc3)cs2)n1           < 4.78
4  C#Cc1cccc(Nc2ncnc(Nc3ccc(OC)c(OC)c3)n2)c1     5.00 to 5.16
5  COc1cc(Nc2ncnc(Nc3ccc4cn[nH]c4c3)n2)cc(OC)c1OC           > 5.99

Next, consider the following compound.
What value of pIC50 has been reported for the following compound? COc1cc(Nc2ncnc(-n3ccc4ccc(Cl)cc43)n2)cc(OC)c1OC
> 6.01
